- assayedSystem: HLA-A*02:01 (Homo sapiens, UniProt P04439, D140Y/D185E/D98H/E176V/E277Q/G131W/G231S/I119V/I121R/I166T/I218V/L300P/L318F/N151K/N90K/P208A/P217A/Q86G/Q94H/R138H/R169H/T345S)
- assayProcedure: MHC binding assay (UV-ligand exchange, β2m ELISA, peptide exchange yield)
- recordedConditions: binding of HLA-class I restricted peptides to HLA-A*02:01, UV-ligand exchange
measurementLabel: Peptide exchange (MHC class I binding score, peptide exchange yield)

>  <substance>
269 (RVLEVGALQAV; listed as Homo sapiens) [compound 269]

>  <reportedMeasurement>
“++” (≥20% = ++)

$$$$
>  <substance>
455 (SLLKEPQKVQL; listed as Homo sapiens) [compound 455]

>  <reportedMeasurement>
“++” (≥20% = ++)

$$$$
>  <substance>
461 (VMFRTPLASV; listed as Homo sapiens) [compound 461]

>  <reportedMeasurement>
“++” (≥20% = ++)

$$$$

* * *

- assayedSystem: HLA-A*02:01 (Homo sapiens, UniProt P04439, D140Y/D185E/D98H/E176V/E277Q/G131W/G231S/I119V/I121R/I166T/I218V/L300P/L318F/N151K/N90K/P208A/P217A/Q86G/Q94H/R138H/R169H/T345S)
- assayProcedure: MHC binding assay (UV-ligand exchange, β2m ELISA, peptide exchange yield)
- recordedConditions: binding of HLA-class I restricted peptides to HLA-A*02:01, UV-ligand exchange
measurementLabel: Peptide exchange (MHC class I binding score, peptide exchange yield)

>  <substance>
274 (SLLFSLFEA; listed as Homo sapiens) [compound 274]

>  <reportedMeasurement>
“++” (≥20% = ++)

$$$$
>  <substance>
436 (HLAEVSAEV; listed as Homo sapiens) [compound 436]

>  <reportedMeasurement>
“+++” (≥50 = +++)

$$$$
>  <substance>
335 (YSLSSVVTV; listed as Homo sapiens) [compound 335]

>  <reportedMeasurement>
“+++” (≥50 = +++)

$$$$
>  <substance>
115 (AIAGAGILYGV; listed as Homo sapiens) [compound 115]

>  <reportedMeasurement>
“++” (≥20% = ++)

$$$$
>  <substance>
332 (YLISELEAA; listed as Homo sapiens) [compound 332]

>  <reportedMeasurement>
“+++” (≥50 = +++)

$$$$
>  <substance>
109 (IILSILEQA; listed as Homo sapiens) [compound 109]

>  <reportedMeasurement>
“++++” (≥75% = ++++)

$$$$
>  <substance>
212 (ALWDQDNLSV; listed as Homo sapiens) [compound 212]

>  <reportedMeasurement>
“++” (≥20% = ++)

$$$$
>  <substance>
596 (ALLDQTKTLAESAL; listed as Homo sapiens) [compound 596]

>  <reportedMeasurement>
“+++” (≥50 = +++)

$$$$
>  <substance>
201 (RLVDYLEGI; listed as Homo sapiens) [compound 201]

>  <reportedMeasurement>
“+++” (≥50 = +++)

$$$$
>  <substance>
567 (SLLPLDDIVRV; listed as Homo sapiens) [compound 567]

>  <reportedMeasurement>
“+++” (≥50 = +++)

$$$$
>  <substance>
384 (ILFANPNIFV; listed as Homo sapiens) [compound 384]

>  <reportedMeasurement>
“+++” (≥50 = +++)

$$$$
>  <substance>
617 (ALMYESEKVGV; listed as Homo sapiens) [compound 617]

>  <reportedMeasurement>
“+++” (≥50 = +++)

$$$$
>  <substance>
377 (FLLDSSASV; listed as Homo sapiens) [compound 377]

>  <reportedMeasurement>
“++” (≥20% = ++)

$$$$
>  <substance>
541 (SMLEPVPEL; listed as Homo sapiens) [compound 541]

>  <reportedMeasurement>
“+++” (≥50 = +++)

$$$$
>  <substance>
350 (ALLDVTHSELTV; listed as Homo sapiens) [compound 350]

>  <reportedMeasurement>
“+++” (≥50 = +++)

$$$$
>  <substance>
369 (GLFPEHLIDV; listed as Homo sapiens) [compound 369]

>  <reportedMeasurement>
“+++” (≥50 = +++)

$$$$
>  <substance>
261 (YVLEFLEEI; listed as Homo sapiens) [compound 261]

>  <reportedMeasurement>
“++” (≥20% = ++)

$$$$
>  <substance>
371 (FLQAHLHTA; listed as Homo sapiens) [compound 371]

>  <reportedMeasurement>
“++++” (≥75% = ++++)

$$$$
>  <substance>
563 (WLLPYNGVTV; listed as Homo sapiens) [compound 563]

>  <reportedMeasurement>
“+++” (≥50 = +++)

$$$$
>  <substance>
441 (ALLENPKMEL; listed as Homo sapiens) [compound 441]

>  <reportedMeasurement>
“+++” (≥50 = +++)

$$$$
>  <substance>
449 (KLAEGLDIQL; listed as Homo sapiens) [compound 449]

>  <reportedMeasurement>
“+++” (≥50 = +++)

$$$$
>  <substance>
383 (ALLELENSVTL; listed as Homo sapiens) [compound 383]

>  <reportedMeasurement>
“+++” (≥50 = +++)

$$$$
>  <substance>
582 (TLCDVILMV; listed as Homo sapiens) [compound 582]

>  <reportedMeasurement>
“+++” (≥50 = +++)

$$$$
>  <substance>
372 (TMLLNIPLV; listed as Homo sapiens) [compound 372]

>  <reportedMeasurement>
“++” (≥20% = ++)

$$$$
>  <substance>
270 (LLLDEEGTFSL; listed as Homo sapiens) [compound 270]

>  <reportedMeasurement>
“++” (≥20% = ++)

$$$$
>  <substance>
491 (GLNDRSDAV; listed as Homo sapiens) [compound 491]

>  <reportedMeasurement>
“++” (≥20% = ++)

$$$$
>  <substance>
208 (KISPVTFSV; listed as Homo sapiens) [compound 208]

>  <reportedMeasurement>
“+++” (≥50 = +++)

$$$$
>  <substance>
620 (KLLNKIYEA; listed as Homo sapiens) [compound 620]

>  <reportedMeasurement>
“++++” (≥75% = ++++)

$$$$
>  <substance>
64 (YAAPGGLIGV; listed as Homo sapiens) [compound 64]

>  <reportedMeasurement>
“++” (≥20% = ++)

$$$$
>  <substance>
473 (AMATESILHFA; listed as Homo sapiens) [compound 473]

>  <reportedMeasurement>
“+++” (≥50 = +++)

$$$$
>  <substance>
164 (ALLPQPKNLTV; listed as Homo sapiens) [compound 164]

>  <reportedMeasurement>
“+++” (≥50 = +++)

$$$$
>  <substance>
508 (ILAQEQLVVGV; listed as Homo sapiens) [compound 508]

>  <reportedMeasurement>
“+++” (≥50 = +++)

$$$$
>  <substance>
344 (YLQDQHLLLTV; listed as Homo sapiens) [compound 344]

>  <reportedMeasurement>
“+++” (≥50 = +++)

$$$$
>  <substance>
594 (IMLKGDNITL; listed as Homo sapiens) [compound 594]

>  <reportedMeasurement>
“+++” (≥50 = +++)

$$$$
>  <substance>
89 (YILPTETIYV; listed as Homo sapiens) [compound 89]

>  <reportedMeasurement>
“++++” (≥75% = ++++)

$$$$
>  <substance>
465 (QLCDLNAEL; listed as Homo sapiens) [compound 465]

>  <reportedMeasurement>
“+++” (≥50 = +++)

$$$$
>  <substance>
502 (RLLAQVPGL; listed as Homo sapiens) [compound 502]

>  <reportedMeasurement>
“+++” (≥50 = +++)

$$$$
>  <substance>
505 (SLAPGDVVRQV; listed as Homo sapiens) [compound 505]

>  <reportedMeasurement>
“++” (≥20% = ++)

$$$$

* * *

- assayedSystem: HLA-A*02:01 (Homo sapiens, UniProt P04439, D140Y/D185E/D98H/E176V/E277Q/G131W/G231S/I119V/I121R/I166T/I218V/L300P/L318F/N151K/N90K/P208A/P217A/Q86G/Q94H/R138H/R169H/T345S)
- assayProcedure: MHC binding assay (UV-ligand exchange, β2m ELISA, peptide exchange yield)
- recordedConditions: binding of HLA-class I restricted peptides to HLA-A*02:01, UV-ligand exchange
measurementLabel: Peptide exchange (MHC class I binding score, peptide exchange yield)

>  <substance>
513 (SLWPSPEQL; listed as Homo sapiens) [compound 513]

>  <reportedMeasurement>
“++” (≥20% = ++)

$$$$
>  <substance>
284 (ILLSQTTGV; listed as Homo sapiens) [compound 284]

>  <reportedMeasurement>
“+++” (≥50 = +++)

$$$$
>  <substance>
428 (KLGHTDILVGV; listed as Homo sapiens) [compound 428]

>  <reportedMeasurement>
“++” (≥20% = ++)

$$$$
>  <substance>
101 (ILVGGGALATV; listed as Homo sapiens) [compound 101]

>  <reportedMeasurement>
“+++” (≥50 = +++)

$$$$
>  <substance>
132 (LLVEQPPLAGV; listed as Homo sapiens) [compound 132]

>  <reportedMeasurement>
“+++” (≥50 = +++)

$$$$
